Reported pEC50 values are given for each entry in this list.
# Tested on: Z-138 cells
# assayProtocol: Z-138 Proliferation Assay (Cell Titer Glo, 5 days)
# Assay type: cell-based
# experimentalParameters: Homo sapiens, Table D-2
pEC50: −log10 of the molar value.

Recorded results for 3 compounds are shown here.
{"compound": "OC(COc1cccc(-c2ccccc2Cl)c1)CN1CCc2ccccc2C1 (stereo not shown)", "testTarget": "Z-138 cells", "observable": "pEC50", "result": "4.40 to 5.00"}
{"compound": "CS(=O)(=O)c1ccc(-c2cccc(OCC(O)CN3CCc4ccccc4C3)c2)cc1 (stereo not shown)", "testTarget": "Z-138 cells", "observable": "pEC50", "result": "4.40 to 5.00"}
{"compound": "O=C(c1ccc(Cn2ccc(-c3ccc(OCC(O)CN4CCc5ccccc5C4)cc3)n2)cc1)N1CCCC1 (stereo not shown)", "testTarget": "Z-138 cells", "observable": "pEC50", "result": "4.40 to 5.00"}

*Q* Which measured pEC50 value corresponds to OC(COC1Cc2ccccc2C1)CN1CCc2ccccc2C1 (stereo not shown) ?
*A* < 4.40

*Q* Which measured pEC50 value corresponds to Cn1ccc(C(=O)Nc2cccc(OCC(O)CN3CCc4ccccc4C3)c2)n1 (stereo not shown) ?
*A* < 4.70

*Q* Which measured pEC50 value corresponds to OC(COc1cccc(-c2ccc3ncn(C4CCOCC4)c3c2)c1)CN1CCc2ccccc2C1 (stereo not shown) ?
*A* 5.00 to 6.00

*Q* Which measured pEC50 value corresponds to O=C(Cn1cnc2ccc(-c3cccc(OCC(O)CN4CCc5ccccc5C4)c3)cc21)N1CCOCC1 (stereo not shown) ?
*A* 5.00 to 6.00

###

# testTarget: PRMT5/MEP50 (Homo sapiens, UniProt O14744)
# Construct: Expressed full-length human Flag-PRMT5/6His-MeP50 protein complex was purified; made in house; host or cells: Spodoptera frugiperda (SF9) insect cells, baculovirus (pDEST8)
# Sequence (O14744 with tags, fused parts or gaps): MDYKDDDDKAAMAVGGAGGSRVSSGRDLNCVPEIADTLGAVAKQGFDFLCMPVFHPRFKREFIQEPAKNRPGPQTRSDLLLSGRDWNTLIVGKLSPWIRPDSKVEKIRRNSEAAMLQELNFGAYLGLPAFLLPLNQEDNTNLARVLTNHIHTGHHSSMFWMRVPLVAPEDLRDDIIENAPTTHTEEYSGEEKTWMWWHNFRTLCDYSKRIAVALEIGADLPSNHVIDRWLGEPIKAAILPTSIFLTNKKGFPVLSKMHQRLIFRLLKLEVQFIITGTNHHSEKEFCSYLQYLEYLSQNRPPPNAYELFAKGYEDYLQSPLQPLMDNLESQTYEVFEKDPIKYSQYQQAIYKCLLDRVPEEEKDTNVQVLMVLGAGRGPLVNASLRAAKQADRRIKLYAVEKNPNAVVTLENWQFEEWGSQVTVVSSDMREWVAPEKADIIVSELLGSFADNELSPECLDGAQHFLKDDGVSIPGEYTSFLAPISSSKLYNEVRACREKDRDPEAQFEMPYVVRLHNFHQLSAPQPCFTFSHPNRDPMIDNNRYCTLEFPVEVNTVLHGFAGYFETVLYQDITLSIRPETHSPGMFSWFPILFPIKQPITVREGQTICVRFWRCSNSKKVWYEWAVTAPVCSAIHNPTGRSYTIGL
# Sequence (Q9BQA1 with tags, fused parts or gaps partner limits assumed): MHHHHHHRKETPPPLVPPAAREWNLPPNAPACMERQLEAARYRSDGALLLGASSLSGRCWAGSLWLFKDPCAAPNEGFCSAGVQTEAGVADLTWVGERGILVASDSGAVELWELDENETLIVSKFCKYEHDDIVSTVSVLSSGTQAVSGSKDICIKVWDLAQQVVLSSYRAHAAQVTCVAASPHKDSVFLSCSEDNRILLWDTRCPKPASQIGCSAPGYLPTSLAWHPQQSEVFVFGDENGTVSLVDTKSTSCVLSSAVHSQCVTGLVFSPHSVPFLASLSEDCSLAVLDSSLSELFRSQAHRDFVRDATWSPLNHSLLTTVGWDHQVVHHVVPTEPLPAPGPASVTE
# assayProtocol: PRMT5 Biochemical Assay (PRMT5/MEP50 enzyme assay on peptide substrate, 3H-SAM Flashplate)
# experimentalParameters: Table D-2; read-out: Biochemical IC50
pIC50: −log10 of the molar value.
observable: pIC50

Recorded results for 10 molecules are shown here.
{"molecule": "Cn1cnc2ccc(-c3ccnc(NCC(O)CN4CCc5ccccc5C4)c3)nc21 (stereo not drawn)", "result": "> 7.00"}
{"molecule": "Oc1ccc(-c2cccc(OCC(O)CN3CCc4ccccc4C3)c2)cc1F (stereo not drawn)", "result": "5.00 to 6.00"}
{"molecule": "Cn1cnc2ccc(-c3cccc(NCC(O)CN4CCc5ccccc5C4)n3)cc21 (stereo not drawn)", "result": "6.00 to 7.00"}
{"molecule": "OC(COC1CCN(Cc2ccccc2)C1)CN1CCc2ccccc2C1 (stereo not drawn)", "result": "5.00 to 6.00"}
{"molecule": "O=C(Cn1ccc2cnc(-c3ccnc(NCC(O)CN4CCc5ccccc5C4)c3)nc21)N1CCCC1 (stereo not drawn)", "result": "> 7.00"}
{"molecule": "OCc1cccc(-c2cccc(OCC(O)CN3CCc4ccccc4C3)c2)c1 (stereo not drawn)", "result": "6.00 to 7.00"}
{"molecule": "OC(COc1cccc(-c2cccnc2)c1)CN1CCc2ccccc2C1 (stereo not drawn)", "result": "5.00 to 6.00"}
{"molecule": "COC(COc1cccc(CNC2CCCC2)c1)CN1CCc2ccccc2C1 (stereo not drawn)", "result": "5.00 to 6.00"}
{"molecule": "CS(=O)(=O)c1ccc(-c2cccc(OCC(O)CN3CCc4ccccc4C3)c2)cc1 (stereo not drawn)", "result": "6.00 to 7.00"}
{"molecule": "OC(COc1cccc(-c2ccccc2)c1)CN1CCc2ccccc2C1 (stereo not drawn)", "result": "6.00 to 7.00"}

*Q* Test system PRMT5/MEP50 (Homo sapiens, UniProt O14744); read-out pIC50; what value for OC(COC1CCNCC1)CN1CCc2ccccc2C1 (stereo not drawn) ?
*A* < 4.40

*Q* Test system PRMT5/MEP50 (Homo sapiens, UniProt O14744); read-out pIC50; what value for OC(COc1cccc(-c2csc3ccccc23)c1)CN1CCc2ccccc2C1 (stereo not drawn) ?
*A* 6.00 to 7.00

*Q* Test system PRMT5/MEP50 (Homo sapiens, UniProt O14744); read-out pIC50; what value for COc1ccc2c(c1)CN(CC(O)COc1cccc(-c3ccc4ncn(C)c4c3)c1)CC2 (stereo not drawn) ?
*A* 4.40 to 5.00

*Q* Test system PRMT5/MEP50 (Homo sapiens, UniProt O14744); read-out pIC50; what value for OC(COc1cccc(-c2cncnc2)c1)CN1CCc2ccccc2C1 (stereo not drawn) ?
*A* 5.00 to 6.00

*Q* Test system PRMT5/MEP50 (Homo sapiens, UniProt O14744); read-out pIC50; what value for Cn1ccc(C(=O)Nc2cccc(OCC(O)CN3CCc4ccccc4C3)c2)n1 (stereo not drawn) ?
*A* 5.00 to 6.00
